test system: MALME-3M melanoma; experiment: NCI-60 one-dose screen, 48 h; settings: 10 µM unless noted
The panel holds about 83,000 compounds, 20% with a hit somewhere; the sample as a whole holds those more often. Active and inactive are the calls of the source. How the source made its calls: active means growth percent below 10; inactive means the rest.
Classes used: YES (active), NO (inactive)

{"columns": ["molecule", "category_label"],
 "data": [
  ["CNC(=O)c1cc(Oc2ccc(NC(=O)Nc3ccc(Cl)c(SC)c3)c(F)c2)ccn1", "NO"],
  ["O=C1c2ccccc2OC=C(c2ccccc2)N1CCCCNc1ccc(S(=O)(=O)Nc2ncccn2)cc1", "NO"],
  ["O=C(O)c1c(=O)cccc2ssc12", "YES"],
  ["CSc1nc(-c2cccc(NC(=O)CCl)c2)c(C#N)c(=O)n1C", "YES"],
  ["O=C(/C=C/C=C/c1ccc2c(c1)OCO2)N/N=C\\c1ccc(O)cc1O", "NO"],
  ["COc1ccc(/C=C(\\C#N)C(=O)Nc2cccc(Nc3nc(SC)nc(-c4cccc([N+](=O)[O-])c4)c3C#N)c2)cc1OC", "NO"],
  ["CC(C)CSc1nc(N)nc2c1ncn2C1OC(CO)C(O)C1O (stereo not given)", "NO"],
  ["C#CC(F)(F)[C@]1(O)CC[C@H]2[C@@H]3CCC4=CC(=O)CCC4=C3[C@@H](c3ccc(C4CC4)cc3)C[C@@]21C", "YES"],
  ["COC[C@H](C)n1c(C2CCOCC2)nc2cnc3cc(-c4c(C)noc4C)c(OC)cc3c21", "NO"],
  ["Cc1cc(N2CCCCCC2)nc(NC2CCCC(Nc3ccnc4cc(Cl)ccc34)C2)n1 (stereo not given)", "YES"],
  ["CCOc1ccc(-n2nc(C(=O)Nc3cc(OC)c(OC)c(OC)c3)nc2-c2cc(OC)c(OC)c(OC)c2)cc1", "NO"],
  ["CC/C=C\\C[C@H](O)C/C=C1/C(=O)C=C[C@@]1(C)C/C=C\\CCCC(=O)OC", "NO"],
  ["Cn1cc(-c2nonc2-c2cn(C)c3ccc(F)cc23)c2ccccc21", "NO"],
  ["O=C1c2ccccc2C(=O)c2c1ccc1[nH]c(-c3cccs3)nc21", "NO"],
  ["C[n+]1ccccc1/C=C/c1ccc2cccc(O)c2n1", "NO"],
  ["CCOc1cc2ncc(C#N)c(Nc3ccc(F)c(Cl)c3)c2cc1NC(=O)CC1CCSS1 (stereo not given)", "YES"],
  ["CCCCCCCCCCCCC[N+](C)(C)Cc1ccccc1", "YES"],
  ["C=CC(=O)Nc1cccc(Nc2nc(SC)nc(-c3cccc([N+](=O)[O-])c3)c2C#N)c1", "NO"],
  ["Cc1ccc(NS(=O)(=O)c2ccc(-c3cnc(C4CC4)o3)cc2)cc1C", "NO"],
  ["Clc1ccc2c(NCCCNc3nc(-n4ccnc4)nc4ccccc34)ccnc2c1", "NO"],
  ["C=CCSSC1N=CNc2nc[nH]c21 (stereo not given)", "NO"],
  ["O=[N+]([O-])c1ccc2c(c1)Cc1cc(F)ccc1-2", "NO"],
  ["CCN(CC)S(=O)(=O)c1ccc(OC)c(NC(=O)c2[nH]c(C)c3c2CCCCC3=O)c1", "NO"],
  ["NC(CSC(c1ccccc1)(c1ccccc1)c1ccc(Cl)cc1)C(=O)O (stereo not given)", "NO"],
  ["COc1cc(-c2nc3ccccc3[nH]2)ccc1OCc1nnc(-c2ccc(CC(C)C)cc2)o1", "NO"],
  ["CSc1ccc(SC2c3ccc(C)cc3Oc3nc(N)c(C#N)c(N)c32)cc1 (stereo not given)", "YES"],
  ["Cc1cc(Nc2ccc(C)c(Cl)c2)n2nc(C(F)(F)F)nc2n1", "YES"],
  ["COc1cc(-c2ccc3c(c2)NC(=O)/C3=C\\c2ccc[nH]2)ccc1O", "NO"],
  ["CC(=O)Nc1ccc(S(=O)(=O)Nc2cccc(-c3nc(-c4ccc(NC(=O)c5cccnc5)cc4Cl)no3)c2)cc1", "NO"],
  ["CN(C)S(=O)(=O)c1cccc(-c2nc3sc4c(c3c(=O)[nH]2)CCCC4)c1", "NO"],
  ["COc1ccc(-c2cc(NC(=O)Nc3ccc4ncsc4c3)no2)cc1", "NO"],
  ["O=C1/C(=C/c2ccccc2)SC(=S)N1CCc1ccc(O)cc1", "NO"],
  ["C#CCOc1ccc2ncnc(Nc3cccc(CNC(=O)CCl)c3)c2c1", "NO"],
  ["O=C(NCCN1CCOCC1)Nc1ccc(-c2cc3c(Nc4ccc(Oc5cccc(C(F)(F)F)c5)c(Cl)c4)ncnc3s2)cc1", "YES"],
  ["CN(C)CCN1C(=O)c2cccc3c(N)ccc(c23)C1=O", "NO"],
  ["C=C1C(=O)O[C@H]2[C@H]1CC/C(COC(=O)NCCc1ccc(OC)c(OC)c1)=C\\CC[C@@]1(C)O[C@@H]21", "NO"],
  ["O=C(/C=C/c1ccc(C(F)(F)F)cc1)Nc1ccc(C=C2c3ccccc3C(=O)c3ccccc32)cc1", "NO"],
  ["CC/C=C\\C/C=C\\C[C@H]1C/C=C2/C(=O)C=C[C@@H]2C/C=C\\CCC(=O)O1", "NO"],
  ["CC(C)c1c(C(=O)c2ccccc2)c(-c2ccccc2)c(-c2ccc(F)cc2)n1CC[C@@H](O)C[C@@H](O)CC(=O)O", "NO"],
  ["O=c1cc(CSc2nnc(SCc3cc(=O)oc4c3ccc3ccccc34)o2)c2ccc3ccccc3c2o1", "NO"]
]}

---

system: M14 melanoma; test: NCI-60 one-dose screen, 48 h (100 = growth as untreated, 0 = no growth, -100 = all killed); conditions: 10 µM unless noted
Compounds without any hit were thinned out: in the full panel of roughly 83,000, 20% have a hit. Active and inactive are the calls of the source. The calls were made as follows: active = growth percent below 10; inactive = the rest.
Reported values of growth for individual entries

{"columns": ["compound", "growth"],
 "data": [
  ["COc1cccc(Nc2nc(SC)nc(-c3cccc([N+](=O)[O-])c3)c2C#N)c1", "83.4% (inactive)"],
  ["O=c1c2c3c(sc2nc(N/N=C/c2cn(-c4ccccc4)nc2-c2ccc(Cl)cc2)n1Cc1ccccc1)CCCC3", "98.1% (inactive)"],
  ["O=C1/C(=C/c2ccccc2)SC(=S)N1CCc1ccc(O)cc1", "97.1% (inactive)"],
  ["Cn1cc(C(=O)c2nc(-c3c[nH]c4ccc(F)cc34)no2)c2cc(F)ccc21", "97% (inactive)"],
  ["CCOc1cc2ncc(C#N)c(Nc3ccc(F)c(Cl)c3)c2cc1NC(=O)CC1CCSS1 (centres undefined)", "-66.8% (active)"],
  ["O=C1Nc2c(ccc(Cl)c2Cl)/C1=C\\c1cc(C(F)(F)F)cc(C(F)(F)F)c1", "-18.2% (active)"],
  ["COc1ccc(C(=O)c2sc3nc4c(c(-c5cccnc5)c3c2N)CCCC4)cc1OC", "118% (inactive)"],
  ["Nc1nc2ncc(CCNc3ccc(C(=O)O)cc3)nc2c(=O)[nH]1", "107% (inactive)"],
  ["COc1cc2c(cc1O)CC[C@@H]1[C@@H]2CC[C@]2(C)[C@@H](NCCN(C)C)CC[C@@H]12", "-63.7% (active)"]
]}

---

test system: NCI-H522 lung; assay: NCI-60 one-dose screen, 48 h; conditions: 10 µM unless noted
About 83,000 compounds went through this panel and 20% of them were active in at least one assay; those are over-represented in the sample as a whole. Active and inactive are the calls of the source. The calls were made as follows: active = growth percent below 10; inactive = the rest.
Labels: active, inactive

{"columns": ["compound", "category_label"],
 "data": [
  ["CN1CCN(c2ccc(Nc3c4ccccc4nc4ccccc34)cc2)CC1", "inactive"],
  ["CCN1CCN(c2nc(NCCNc3ccnc4cc(Cl)ccc34)c3ccccc3n2)CC1", "inactive"],
  ["OCCNc1nccc(N2CCN(c3ccnc4cc(Cl)ccc34)CC2)n1", "inactive"],
  ["COc1ccc(S(=O)(=O)N2CC3(COC3)C2)cc1NC(=O)c1[nH]c(C)c2c1CCCCC2=O", "inactive"],
  ["Cc1ccc(C(SCC(N)C(=O)O)(c2ccccc2)c2ccc(C)cc2)cc1 (stereo not given)", "active"]
]}

---

Test system: RXF 393 renal
Experiment: NCI-60 one-dose screen, 48 h
Settings: 10 µM unless noted
Experimental: Cells are grown in 96 well plates and exposed to the test compound for 48 hours. Compounds are tested at a single concentration, which is 10^-5 M for most compounds. The reported endpoint is percent growth (GI% or GIPRCNT), where numbers from 0 - 100% represent growth inhibition, and numbers from -100% - 0 represent cell death. For example, a value of 40 represents 60% growth inhibition. A value of 0 means no net growth occurred over the course of the experiment. […]
The panel holds about 83,000 compounds, 20% with a hit somewhere; the sample as a whole holds those more often. The source made the active and inactive calls. How the source made its calls: active means growth percent below 10; inactive means the rest.
Possible outcomes: active, inactive

{"columns": ["compound", "category_label"],
 "data": [
  ["COc1cccc(-c2nn(C(C)(C)C)cc2-c2ccnc(NCCCNS(=O)(=O)c3cccc4ccccc34)c2)c1", "inactive"],
  ["O=c1c(F)cn(Cc2ccccc2CCl)c(=O)n1Cc1ccccc1CCl", "active"],
  ["Cc1cc(C)nc(SC2=C(Nc3ccc(O)cc3)C(=O)N(Cc3ccccc3)C2=O)n1", "inactive"],
  ["Cc1cc(N2CCCCC2)nc(NC2CCCC(Nc3ccnc4cc(Cl)ccc34)C2)n1 (stereo not given)", "active"],
  ["COc1ccc(C2Nc3c(c(C(C)(C)C)nn3-c3ccccc3)C(=O)CS2)cc1 (stereo not given)", "inactive"]
]}
